Tested on: CHO-K1 cells
Experiment: Toxicity in RRA (loss of luciferase signal)
Conditions: Conc 10 μg/ml; toxicity = loss of signal (<0.75 fold increase)
// values below are reported (%)APPI Toxicity

| COMPOUND | (%)APPI Toxicity |
| --- | --- |
| CC[C@H](C)[C@H](NS(=O)(=O)c1ccc(Br)cc1)C(O)(CC(C)C)CC(C)C | 1 (1=non-toxic) |
| CC[C@@H](C)[C@@H](CO)NS(=O)(=O)c1ccc(Br)cc1 | 1 (1=non-toxic) |
| CC[C@H](C)[C@H](NS(=O)(=O)c1ccc(Cl)cc1)C(O)CCC1OCCCO1 (some centres unmarked) | 1 (1=non-toxic) |
| CC[C@H](C)[C@H](NS(=O)(=O)c1ccccc1F)C(O)c1ccc(OC)cc1 (some centres unmarked) | 1 (1=non-toxic) |
| CCC(O)[C@@H](NS(=O)(=O)c1ccc(F)cc1)[C@@H](C)CC (some centres unmarked) | 1 (1=non-toxic) |
| C=CCC(O)[C@@H](NS(=O)(=O)c1ccc(Br)cc1)[C@@H](C)CC (some centres unmarked) | 1 (1=non-toxic) |
| CC[C@H](C)[C@H](NS(=O)(=O)c1ccc(Br)cc1)C(O)c1ccc(OC)cc1 (some centres unmarked) | 1 (1=non-toxic) |
| CC[C@H](C)[C@H](NS(=O)(=O)c1ccc(F)cc1)C(O)c1ccc(OC)cc1 (some centres unmarked) | 1 (1=non-toxic) |
| C=CCCC(O)(CCC=C)[C@@H](NS(=O)(=O)c1ccc(Br)cc1)[C@@H](C)CC | 1 (1=non-toxic) |
| CCCCCC(O)[C@@H](NS(=O)(=O)c1ccc(Cl)cc1)[C@@H](C)CC (some centres unmarked) | 1 (1=non-toxic) |
| C=C(C)C(O)(C(=C)C)[C@@H](NS(=O)(=O)c1ccc(Cl)cc1)[C@@H](C)CC | 1 (1=non-toxic) |
| CCCC(CO)NS(=O)(=O)c1cccc(Cl)c1 (centres unmarked) | 1 (1=non-toxic) |
| CCCCCCC(O)(CCCCCC)[C@@H](NS(=O)(=O)c1ccc(Cl)cc1)[C@@H](C)CC | 1 (1=non-toxic) |
| CCCCCCC(O)[C@@H](NS(=O)(=O)c1ccc(Cl)cc1)[C@@H](C)CC (some centres unmarked) | 1 (1=non-toxic) |
| CC[C@H](C)[C@H](NS(=O)(=O)c1ccc(Cl)cc1)C(O)CC(C)C (some centres unmarked) | 1 (1=non-toxic) |
| CC[C@H](C)[C@H](NS(=O)(=O)c1ccc(Br)cc1)C(O)C=C(C)C (some centres unmarked) | 1 (1=non-toxic) |
| CC[C@H](C)[C@H](NS(=O)(=O)c1cccc(Cl)c1)C(O)C(C)C (some centres unmarked) | 1 (1=non-toxic) |

Sourced from patent US7166622B2
